Entries below carry reported pKi on SucB (Mycobacterium tuberculosis).
Sequence (P9WIS7 whole entry): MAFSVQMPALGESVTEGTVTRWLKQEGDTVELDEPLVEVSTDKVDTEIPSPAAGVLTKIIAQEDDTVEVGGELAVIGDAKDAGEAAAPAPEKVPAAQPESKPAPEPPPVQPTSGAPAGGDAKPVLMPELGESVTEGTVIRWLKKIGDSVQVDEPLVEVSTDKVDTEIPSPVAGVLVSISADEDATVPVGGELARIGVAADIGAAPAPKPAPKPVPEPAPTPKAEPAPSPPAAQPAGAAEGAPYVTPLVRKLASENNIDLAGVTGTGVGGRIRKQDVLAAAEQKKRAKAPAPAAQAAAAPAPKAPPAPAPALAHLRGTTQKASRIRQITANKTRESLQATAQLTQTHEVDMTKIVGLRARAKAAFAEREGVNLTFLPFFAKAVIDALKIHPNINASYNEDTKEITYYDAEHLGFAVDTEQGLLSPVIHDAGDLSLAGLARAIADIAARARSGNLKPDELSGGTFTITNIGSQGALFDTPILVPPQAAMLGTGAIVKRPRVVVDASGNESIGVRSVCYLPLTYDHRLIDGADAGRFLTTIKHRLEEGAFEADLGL
Answers are plain numbers, as −log10 of the molar value.

* O=C(O)CN1C(=O)/C(=C\c2ccc(-c3cccc(Cl)c3Cl)o2)SC1=S | 5.22

Next compound, pKi to be filled in.
Request: Using the record for O=C(O)CCN1C(=O)/C(=C\c2ccc(-c3cccc(C(F)(F)F)c3)o2)SC1=S , report its pKi.
Result: 5.52
